Origin of measurements: PubChem BioAssay (NCI)

system: NCI-H23 lung; experiment: NCI tumour cell line growth inhibition, 48 h
readout_type: TGI (µM)
A number alone suffices; assume µM.

CC1(O)CC(=O)c2c(cc3ccc(-c4c5c(c(O)c6c(O)cccc46)C(=O)CC(C)(O)C5)c(O)c3c2O)C1 (centres undefined) ... 1.35

Note: attention shifts to another entry.
Q: For the compound OC(CCNCc1ccccc1)c1ccc2ccccc2c1 (centres undefined) , report TGI.
Ans: 62.1

---

tested on: SF-539 CNS; assay: NCI tumour cell line growth inhibition, 48 h
readout_type: GI50

Some entries whose results are on file:
COc1ccc(C(=O)/C=C/c2c(Cl)c3c(c(OC)c2Cl)OCC(=O)N3)cc1 ... 2.21 µM
O=C(/C=C/c1ccc([N+](=O)[O-])cc1)c1ccc2c3c(cccc13)CC2 ... 2.63 µM
Cc1ccc(S(=O)(=O)Nc2cccc3[nH]c(C(F)(F)F)nc23)cc1 ... 0.427 µM

Q: For the molecule O=C(Nc1cccc(NC(=O)Nc2cc(C(F)(F)F)ccc2Cl)c1)Nc1cc(C(F)(F)F)ccc1Cl , report GI50.
Ans: 6.15 µM

Q: For the molecule CC(C)(O)CC(=O)NCCn1ccc2ncnc(Nc3ccc(Oc4cccc(C(F)(F)F)c4)c(Cl)c3)c21 , report GI50.
Ans: 4.03 µM

Q: For the molecule Cn1cc(C2=C(c3cccc(OCC(O)CO)c3)C(=O)NC2=O)c2ccccc21 (configuration not stated) , report GI50.
Ans: > 25 µM

Q: For the molecule Clc1nc(Cl)c2ncn(C/C=C/COc3cccc(OC/C=C/Cn4cnc5c(Cl)nc(Cl)nc54)c3)c2n1 , report GI50.
Ans: > 100 µM

---

test system: PC-3 prostate; assay: NCI tumour cell line growth inhibition, 48 h
readout_type: TGI

Some entries whose results are on file:
O=C1c2c(O)cccc2C(C2OC(CO)C(O)C(O)C2O)c2cc(CO)cc(O)c21 (stereo not drawn) ... > 100 µM
c1cn(C23C4C5C6C4C2C6C53)cn1 (stereo not drawn) ... > 100 µM
COc1cc(C(=O)NC2CCN(C)CC2)c(F)cc1Nc1ncc2c(n1)N(C1CCCC1)CC(F)(F)C(=O)N2C ... 18.3 µM
COc1ccc(/C=C2\S/C(=N/Nc3nc(-c4ccccc4)cs3)NC2=O)cc1OC ... 52.6 µM

Q: For the compound COc1ccc(-n2c(=O)n(C)c(=O)n2-c2ccc(OC)cc2)cc1 , report TGI.
Ans: > 100 µM

Q: For the compound COc1ccc2nc3cc([N+](=O)[O-])ccc3c(Nc3ccc(S(=O)(=O)NC(C)=O)cc3)c2c1 , report TGI.
Ans: > 100 µM

Q: For the compound S=C1SCN(Cc2ccco2)CN1c1ccc(Br)cc1 , report TGI.
Ans: 37 µM

Q: For the compound CCOC(=O)c1c(N2CCCC2)ncn(Cc2ccccc2)c1=S , report TGI.
Ans: > 100 µM

---

test system: HS 578T breast; assay: NCI tumour cell line growth inhibition, 48 h; in the data active = GI50 below about 0.43 µM; inactive = the rest
I would appreciate it if you answered using one of these outcomes: true (active), false (inactive)

C[CH2][Sn]([CH2]C)([O]C(=O)C(OC(C)=O)c1ccccc1)[O]C(=O)C(OC(C)=O)c1ccccc1 (stereo unspecified) ... false
COc1cccc(-n2ncc3c(N/N=C/c4ccncc4)ncnc32)c1 ... true
COc1ccc(OC)c(-c2c(C#N)c(N)nc(N3CCOCC3)c2C#N)c1 ... false
Nc1[nH]nc2nc(-c3cccs3)cc(C(F)(F)F)c12 ... false
COc1ccc(C(=O)/C=C/c2c(Cl)c3c(c(OC)c2Cl)OCC(=O)N3)cc1 ... false

# next molecule below
Q: Tell me the assay call for COc1ccc(C(=O)c2cc3c(N)c(C(=O)Nc4cccc5ccccc45)sc3nc2C)cc1 please.
Ans: true
